system: MCF7 breast; assay: NCI tumour cell line growth inhibition, 48 h; in the data active = GI50 below about 0.43 µM; inactive = the rest
Write down the outcome that applies. Available outcomes: active, inactive

Some entries whose results are on file:
Write down the call the test reported for this compound. Item: `CNCc1cccc2c1OCCOCCOCCN(C)S(=O)(=O)c1ccc(cc1)-c1cnc(N)c(n1)C(=O)N2`
active

Repeat for the following compound: `CC1(C)OC[C@@H]([C@@]2(CO[Si](c3ccccc3)(c3ccccc3)C(C)(C)C)CC=CC(=O)O2)O1`
inactive

Now consider `C[C@]12CC[C@H]3[C@@H](CCC4=CC(=O)CC[C@@]43C)[C@@H]1CC[C@@H]2c1csc(N)n1` and answer again.
inactive

Please give the result for `COc1ccc2c(c1)C(=O)c1c-2c(Nc2ccccc2OC)nc2ccccc12` too.
inactive

Thanks! And `COc1ccc2c(c1)c(-c1nc(-c3c[nH]c4ncccc34)cs1)cn2CCCN1CCOCC1` ?
inactive

Would you mind doing CC(=O)ON1CCCC(P(=O)(OCOC(=O)C(C)(C)C)OCOC(=O)C(C)(C)C)C1=O (configuration not stated) as well?
active

Next compound, please.
Field: outcome | Entry: `COc1ccc(OC)c(/C=C/c2nc(=S)n(-c3ccc(Cl)cc3)[nH]2)c1`
inactive
